Target: nsp14 methyltransferase from SARS-CoV-2 (Severe acute respiratory syndrome coronavirus 2)
Assay: Nsp14 MTase activity inhibition in vitro (EchoMS assay)
Type: biochemical
Details: recombinant nsp14 protein expressed in E. coli; dose-response curve
PARAMETER: IC50

Would you please look over these solved cases?
Cc1noc(-c2ccccc2)c1CSC[C@H]1O[C@@H](n2cc(-c3cncn3C)c3c(N)ncnc32)[C@H](O)[C@@H]1O: 30 to 100 nM
Cc1noc(-c2ccccc2)c1CSC[C@H]1O[C@@H](n2ncc3c(N)ncnc32)[C@H](O)[C@@H]1O: 30 to 100 nM
Cc1noc(-c2ccccc2)c1CSC[C@H]1O[C@@H](n2cc(C#Cc3ccccn3)c3c(N)ncnc32)[C@H](O)[C@@H]1O [Compound 171b]: 10 to 30 nM
Cc1nsc(-c2ccccc2)c1CSC[C@H]1O[C@@H](n2cc(C#Cc3cncnc3)c3c(N)ncnc32)[C@H](O)[C@@H]1O [Compound 238c]: 30 to 100 nM
Cc1noc(-c2ccccc2)c1CSC[C@H]1O[C@@H](n2cc(-c3ccc([N+](=O)[O-])nc3)c3c(N)ncnc32)[C@H](O)[C@@H]1O: 30 to 100 nM
Cc1noc(-c2ccccc2)c1CSC[C@H]1O[C@@H](n2cc(-c3ccc4ccccc4c3)c3c(N)ncnc32)[C@H](O)[C@@H]1O [Compound 148b]: 100 to 500 nM
Cc1noc(-c2ccccc2)c1CSC[C@H]1O[C@@H](n2cc(-c3ccc(OC(F)(F)F)cc3)c3c(N)ncnc32)[C@H](O)[C@@H]1O [Compound 146b]: 100 to 500 nM
Cc1noc(-c2ccccc2)c1CSC[C@H]1O[C@@H](n2cc(Cc3ccccc3)c3c(N)ncnc32)[C@H](O)[C@@H]1O [Compound 185b]: 100 to 500 nM

Challenge: Identify the reported IC50 for the following entry. Cc1ccc(-c2onc(C)c2CSC[C@H]2O[C@@H](n3cc(C#Cc4cncnc4)c4c(N)ncnc43)[C@H](O)[C@@H]2O)cc1C [Compound 242c]
Response given: 10 to 30 nM

Challenge: Identify the reported IC50 for the following entry. C#Cc1cn([C@@H]2O[C@H](CSCc3c(C)noc3-c3ccccc3)[C@@H](O)[C@H]2O)c2ncnc(N)c12 [Compound 140b]
Response given: 30 to 100 nM

Challenge: Identify the reported IC50 for the following entry. Cc1scc(-c2ccccc2)c1CSC[C@H]1O[C@@H](n2ccc3c(N)ncnc32)[C@H](O)[C@@H]1O [Compound 52c]
Response given: 500 to 2000 nM

Challenge: Identify the reported IC50 for the following entry. CCCCCc1cn([C@@H]2O[C@H](CSCc3c(C)noc3-c3ccccc3)[C@@H](O)[C@H]2O)c2ncnc(N)c12 [Compound 132b]
Response given: 500 to 2000 nM

---

Each item that follows carries a reported pIC50.
Target: nsp14 methyltransferase from SARS-CoV-2 (Severe acute respiratory syndrome coronavirus 2, UniProt P0DTD1)
Experiment: Nsp14 MTase activity inhibition in vitro (EchoMS assay)
Assay type: biochemical
Details: recombinant nsp14 protein expressed in E. coli; dose-response curve
pIC50: −log10 of the molar value.

Would you please look over these solved cases?
Cc1noc(-c2ccccc2)c1CSC[C@H]1O[C@@H](n2nc(-c3ccc(C#N)cc3)c3c(N)ncnc32)[C@H](O)[C@@H]1O [Compound 219b]: 7.00 to 7.52
Cc1noc(-c2cccc3ccccc23)c1CSC[C@H]1O[C@@H](n2ccc3c(N)ncnc32)[C@H](O)[C@@H]1O [Compound 100c]: 7.52 to 8.00
Cc1ncnc(-c2ccccc2)c1CSC[C@H]1O[C@@H](n2cc(C#Cc3cncnc3)c3c(N)ncnc32)[C@H](O)[C@@H]1O [Compound 239c]: 7.00 to 7.52
Cc1noc(-c2ccccc2)c1CSC[C@H]1O[C@@H](n2cc(/C=C/c3ccccc3)c3c(N)ncnc32)[C@H](O)[C@@H]1O [Compound 181b]: 6.30 to 7.00
Cc1noc(-c2ccc3c(c2)OCO3)c1CSC[C@H]1O[C@@H](n2nc(-c3ccc(CC#N)cc3)c3c(N)ncnc32)[C@H](O)[C@@H]1O: 7.52 to 8.00

# evaluate next
Challenge: Identify the reported pIC50 for the following entry. Cc1noc(-c2ccccc2)c1CSC[C@H]1O[C@@H](n2cc(CC(C)C)c3c(N)ncnc32)[C@H](O)[C@@H]1O [Compound 131b]
Response given: 6.30 to 7.00

---

Each item that follows carries a reported pIC50.
Target: nsp14 methyltransferase from SARS-CoV-2 (Severe acute respiratory syndrome coronavirus 2, UniProt P0DTD1)
Test: Nsp14 MTase activity inhibition in vitro (EchoMS assay)
Type: biochemical
Conditions: recombinant nsp14 protein expressed in E. coli; dose-response curve
pIC50: −log10 of the molar value.

Would you please look over these solved cases?
Cc1noc(-c2ccccc2)c1CSC[C@H]1O[C@@H](n2nc(-c3cccc(C(N)=O)c3)c3c(N)ncnc32)[C@H](O)[C@@H]1O [Compound 221b]: 7.00 to 7.52
Cc1noc(-c2ccccc2)c1CSC[C@H]1O[C@@H](n2cc(F)c3c(N)ncnc32)[C@H](O)[C@@H]1O: 6.30 to 7.00
Cc1noc(-c2ccccc2)c1CSC[C@H]1O[C@@H](n2cc(C#Cc3ccnnc3)c3c(N)ncnc32)[C@H](O)[C@@H]1O [Compound 173b]: 7.52 to 8.00
Cc1noc(-c2ccccc2)c1CSC[C@H]1O[C@@H](n2cc(-c3ccc(C#N)cc3)c3c(N)ncnc32)[C@H](O)[C@@H]1O [Compound 143b]: 7.52 to 8.00

Challenge: Identify the reported pIC50 for the following entry. Cn1cnc(-c2ccccc2)c1CSC[C@H]1O[C@@H](n2cc(-c3ccc(C#N)cc3)c3c(N)ncnc32)[C@H](O)[C@@H]1O [Compound 230b]
Response given: 6.30 to 7.00

Challenge: Identify the reported pIC50 for the following entry. Cc1noc(-c2ccccc2)c1CSC[C@H]1O[C@@H](n2cc(C(C)C)c3c(N)ncnc32)[C@H](O)[C@@H]1O [Compound 129b]
Response given: 6.30 to 7.00

---

Biological target: nsp14 methyltransferase from SARS-CoV-2 (Severe acute respiratory syndrome coronavirus 2)
Experiment: Nsp14 MTase activity inhibition in vitro (EchoMS assay)
Type: biochemical
Settings: recombinant nsp14 protein expressed in E. coli; dose-response curve
pIC50: −log10 of the molar value.
Each item that follows carries a reported pIC50.

Cc1cccc(-c2ccccc2)c1CSC[C@H]1O[C@@H](n2ccc3c(N)ncnc32)[C@H](O)[C@@H]1O [Compound 58c]: 5.70 to 6.30
Cc1ncc(-c2cn([C@@H]3O[C@H](CSCc4c(C)noc4-c4ccccc4)[C@@H](O)[C@H]3O)c3ncnc(N)c23)s1: 7.52 to 8.00
Nc1ncnc2c1ccn2[C@@H]1O[C@H](CSCc2c(-c3ccccc3)noc2-c2ccccc2)[C@@H](O)[C@H]1O [Compound 109c]: 6.30 to 7.00
Cc1noc(-c2ccccc2)c1CSC[C@H]1O[C@@H](n2cc(C#Cc3cccc4ccccc34)c3c(N)ncnc32)[C@H](O)[C@@H]1O [Compound 175b]: 5.70 to 6.30
CCC(C)c1cn([C@@H]2O[C@H](CSCc3c(C)noc3-c3ccccc3)[C@@H](O)[C@H]2O)c2ncnc(N)c12 (stereo partly drawn) [Compound 130b]: 6.30 to 7.00

# evaluate next
Challenge: Identify the reported pIC50 for the following entry. Cc1cncc(-c2ccccc2)c1CSC[C@H]1O[C@@H](n2ccc3c(N)ncnc32)[C@H](O)[C@@H]1O [Compound 57c]
Response given: 7.00 to 7.52

---

Target: nsp14 methyltransferase from SARS-CoV-2 (Severe acute respiratory syndrome coronavirus 2, UniProt P0DTD1)
Test: Nsp14 MTase activity inhibition in vitro (EchoMS assay)
Format: biochemical
PARAMETER: IC50

Challenge: Identify the reported IC50 for the following entry. Cc1noc(Cc2ccccc2)c1CSC[C@H]1O[C@@H](n2ccc3c(N)ncnc32)[C@H](O)[C@@H]1O [Compound 99c]
Response given: 2 to 5 µM

---

Target: nsp14 methyltransferase from SARS-CoV-2 (Severe acute respiratory syndrome coronavirus 2, UniProt P0DTD1)
Test: Nsp14 MTase activity inhibition in vitro (EchoMS assay)
Type: biochemical
Conditions: recombinant nsp14 protein expressed in E. coli; dose-response curve
Each item that follows carries a reported IC50.

Would you please look over these solved cases?
Cc1noc(-c2ccccc2)c1CSC[C@H]1O[C@@H](n2cc(-c3ccnn3C)c3c(N)ncnc32)[C@H](O)[C@@H]1O [Compound 154]: 30 to 100 nM
Cc1noc(-c2ccccc2)c1CSC[C@H]1O[C@@H](n2cc(Sc3ccccc3)c3c(N)ncnc32)[C@H](O)[C@@H]1O [Compound 189b]: 30 to 100 nM
Cc1nsc(-c2ccccc2)c1CSC[C@H]1O[C@@H](n2cc(I)c3c(N)ncnc32)[C@H](O)[C@@H]1O [Compound 245]: 30 to 100 nM
Cc1noc(-c2ccccc2)c1CSC[C@H]1O[C@@H](n2cc(-c3ccccc3)c3c(N)ncnc32)[C@H](O)[C@@H]1O [Compound 149]: 30 to 100 nM
Cc1noc(-c2ccccc2)c1CSC[C@H]1O[C@@H](n2cc(-c3ccco3)c3c(N)ncnc32)[C@H](O)[C@@H]1O [Compound 153]: 30 to 100 nM

Challenge: Identify the reported IC50 for the following entry. Cc1noc(-c2ccccc2)c1CSC[C@H]1O[C@@H](n2cc(CCc3ccccc3)c3c(N)ncnc32)[C@H](O)[C@@H]1O [Compound 184]
Response given: 100 to 500 nM
